Recorded values, source ChEMBL document CHEMBL1145809.

Measured pEC50 accompanies every entry in the list below.
Target: Retinoic acid receptor RXR-alpha (Homo sapiens, UniProt P19793)
Sequence (P19793 whole entry): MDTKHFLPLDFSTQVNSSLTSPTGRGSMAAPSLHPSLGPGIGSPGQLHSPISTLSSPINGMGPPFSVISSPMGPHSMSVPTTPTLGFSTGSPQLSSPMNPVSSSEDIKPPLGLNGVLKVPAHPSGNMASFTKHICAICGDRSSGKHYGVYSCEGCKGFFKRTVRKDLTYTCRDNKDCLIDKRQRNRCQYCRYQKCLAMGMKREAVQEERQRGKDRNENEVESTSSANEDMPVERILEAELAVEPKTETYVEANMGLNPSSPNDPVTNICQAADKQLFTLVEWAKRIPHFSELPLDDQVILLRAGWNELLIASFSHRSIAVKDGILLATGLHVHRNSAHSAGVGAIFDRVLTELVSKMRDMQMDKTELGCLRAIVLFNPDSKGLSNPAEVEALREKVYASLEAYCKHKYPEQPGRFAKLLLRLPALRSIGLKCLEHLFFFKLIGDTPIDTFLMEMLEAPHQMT
pEC50: −log10 of the molar value.

>  <mol>
CCOc1c(\C(C)=C/C=C/C(C)=C/C(=O)O)cc(C(C)C)cc1C(C)C

>  <pEC50>
8.70

$$$$
>  <mol>
COc1c(\C(C)=C/C=C/C(C)=C/C(=O)O)cc(C(C)C)cc1C(C)C

>  <pEC50>
8.70

$$$$
>  <mol>
C/C(=C/C=C/C(C)=C/C(=O)O)c1cc(C(C)C)cc(C(C)C)c1OCCF

>  <pEC50>
8.15

$$$$
>  <mol>
COc1c(\C(C)=C/C=C/C(C)=C/C(=O)O)cc(C(C)(C)C)cc1C(C)(C)C

>  <pEC50>
7.44

$$$$
>  <mol>
CCC(C)(C)c1cc(\C(C)=C/C=C/C(C)=C/C(=O)O)c(OC)c(C(C)(C)CC)c1

>  <pEC50>
6.30

$$$$
>  <mol>
CCOc1c(\C(C)=C/C=C/C(C)=C/C(=O)O)cc(C(C)(C)C)cc1C(C)(C)C

>  <pEC50>
7.74

$$$$
